EXPERIMENTAL SYSTEM: T1, human PD-1/His (Sino Biological Inc.) (human, UniProt Q15116 25-170)
T1 construct: extracellular domain; Bought protein; also called extracellular domain fragment of PD-1 protein containing His tag; not shown: His tag
T1 sequence (Q15116 25-170): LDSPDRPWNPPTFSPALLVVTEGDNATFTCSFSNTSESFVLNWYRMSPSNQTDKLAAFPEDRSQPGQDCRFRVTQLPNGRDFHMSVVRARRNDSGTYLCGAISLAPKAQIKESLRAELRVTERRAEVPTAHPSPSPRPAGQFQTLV
TEST SUMMARY: affinity and kinetic constants; method not restated, taken as BLI of Example 3.4
MEASURED PARAMETER: kon (M⁻¹ s⁻¹)
Numbers only; they are read as M⁻¹ s⁻¹.

• humanized antibody AB12M3 (antibody, V domains shown, the description speaks of human IgG4 or IgG1 and human kappa only as embodiments) VH: EVQLVESGGGLVQPGGSLRLSCAASGFTFSSYGMSWVRQAPGKGLEWVATISGGGRDTYYPDSVKGRFTISRDNAKNNLYLQMNSLRAEDTALYYCARQKDTSWFVHWGQGTLVTVSS VL: EIVLTQSPATLSLSPGERATLSCRASESVDDYGISFMNWFQQKPGQAPKLLIYVASNQGSGVPARFSGSGSGTDFSLTISSLEPDDTAMYFCQQSKEVPWTFGGGTKVEIK = 226000
• humanized antibody AB12N5 (antibody, V domains shown) VH: QVQLVESGGGVVQPGRSLRLSCAASGITFSNSGMHWVRQAPGKGLEWVAVWYDGSKRYYADSVKGRFTISRDNSKNTLFLQMNSLRAEDTAVYYCATNDDYWGQGTLVTV VL: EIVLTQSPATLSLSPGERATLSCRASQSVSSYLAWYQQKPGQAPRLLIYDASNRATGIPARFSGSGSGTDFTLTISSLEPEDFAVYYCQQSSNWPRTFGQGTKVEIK = 61900
• humanized antibody AB12N3 (antibody, V domains shown) VH: QVQLVESGGGVVQPGRSLRLSCAASGITFSNSGMHWVRQAPGKGLEWVAVWYDGSKRYYADSVKGRFTISRDNSKNTLYLQMNSLRAEDTAVYYCATNDDYWGQGTLVTV VL: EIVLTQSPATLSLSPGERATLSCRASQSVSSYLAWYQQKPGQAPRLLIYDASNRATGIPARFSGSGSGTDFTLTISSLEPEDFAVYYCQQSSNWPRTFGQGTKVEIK = 62400

Now consider the entry below.
Form: binder = humanized antibody AB12N4 (antibody, V domains shown) VH: QVQLVESGGGVVQPGRSLRLSCAASGITFSNSGMHWVRQAPGKGLEWVAVIWYDGSKRYYADSVKGRFTISRDNSKNTLYLQMNSLRAEDTAVYYCATNDDYWGQGTLVTV VL: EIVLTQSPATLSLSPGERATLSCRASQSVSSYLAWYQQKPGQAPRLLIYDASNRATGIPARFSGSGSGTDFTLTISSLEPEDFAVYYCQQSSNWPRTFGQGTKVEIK ; kon = 63700
